test system: Escherichia coli TOP10; assay: shrunken log2 fold change of peptide-encoding DNA abundance (4.5 h post-induction vs induction); higher = less antimicrobial activity (less host growth inhibition); details: time post-induction: 4.5 h; library: site-saturation at positions 5, 18, 19, 20
Think of -0.04 as a floor: if shrunken log2 fold change stands on it or above, it is fulfilled; beneath it, not fulfilled.

{"residue-codes": "RRIRYRPPRLPRPRPRPKTGPRP", "target-entity": "Escherichia coli TOP10", "class-label": "not fulfilled"}
{"residue-codes": "RRIRNRPPRLPRPRPRPIEFPRP", "target-entity": "Escherichia coli TOP10", "class-label": "not fulfilled"}
{"residue-codes": "RRIRCRPPRLPRPRPRPYYIPRP", "target-entity": "Escherichia coli TOP10", "class-label": "not fulfilled"}
{"residue-codes": "RRIRSRPPRLPRPRPRPGAHPRP", "target-entity": "Escherichia coli TOP10", "class-label": "fulfilled"}
{"residue-codes": "RRIRMRPPRLPRPRPRPLYWPRP", "target-entity": "Escherichia coli TOP10", "class-label": "fulfilled"}
{"residue-codes": "RRIRKRPPRLPRPRPRPVKFPRP", "target-entity": "Escherichia coli TOP10", "class-label": "fulfilled"}
{"residue-codes": "RRIRWRPPRLPRPRPRPQMFPRP", "target-entity": "Escherichia coli TOP10", "class-label": "fulfilled"}
{"residue-codes": "RRIRWRPPRLPRPRPRPESTPRP", "target-entity": "Escherichia coli TOP10", "class-label": "fulfilled"}
{"residue-codes": "RRIRARPPRLPRPRPRPILWPRP", "target-entity": "Escherichia coli TOP10", "class-label": "fulfilled"}
{"residue-codes": "RRIRARPPRLPRPRPRPKYQPRP", "target-entity": "Escherichia coli TOP10", "class-label": "not fulfilled"}
{"residue-codes": "RRIRHRPPRLPRPRPRPYVFPRP", "target-entity": "Escherichia coli TOP10", "class-label": "not fulfilled"}
{"residue-codes": "RRIRCRPPRLPRPRPRPYQTPRP", "target-entity": "Escherichia coli TOP10", "class-label": "fulfilled"}

* * *

shrunken log2 fold change reference
test system: Escherichia coli TOP10; test: shrunken log2 fold change of peptide-encoding DNA abundance (4.5 h post-induction vs induction); higher = less antimicrobial activity (less host growth inhibition); conditions: time post-induction: 4.5 h; library: site-saturation at positions 5, 18, 19, 20
reported-property: shrunken log2 fold change

{"residue-codes": "RRIRKRPPRLPRPRPRPWKHPRP", "target-entity": "Escherichia coli TOP10", "reported-result": -0.339}
{"residue-codes": "RRIRCRPPRLPRPRPRPCPWPRP", "target-entity": "Escherichia coli TOP10", "reported-result": -0.0714}
{"residue-codes": "RRIRLRPPRLPRPRPRPPDMPRP", "target-entity": "Escherichia coli TOP10", "reported-result": -0.111}
{"residue-codes": "RRIRIRPPRLPRPRPRPGYNPRP", "target-entity": "Escherichia coli TOP10", "reported-result": -1.28}
{"residue-codes": "RRIRVRPPRLPRPRPRPAEFPRP", "target-entity": "Escherichia coli TOP10", "reported-result": 0.151}
{"residue-codes": "RRIRVRPPRLPRPRPRPEGLPRP", "target-entity": "Escherichia coli TOP10", "reported-result": 0.0931}
{"residue-codes": "RRIRTRPPRLPRPRPRPLLFPRP", "target-entity": "Escherichia coli TOP10", "reported-result": -0.181}
{"residue-codes": "RRIRYRPPRLPRPRPRPDLCPRP", "target-entity": "Escherichia coli TOP10", "reported-result": 0.0404}
{"residue-codes": "RRIRDRPPRLPRPRPRPYICPRP", "target-entity": "Escherichia coli TOP10", "reported-result": -0.148}
{"residue-codes": "RRIRKRPPRLPRPRPRPLMYPRP", "target-entity": "Escherichia coli TOP10", "reported-result": -0.0706}
{"residue-codes": "RRIRYRPPRLPRPRPRPCWFPRP", "target-entity": "Escherichia coli TOP10", "reported-result": -0.0378}
{"residue-codes": "RRIRFRPPRLPRPRPRPCFHPRP", "target-entity": "Escherichia coli TOP10", "reported-result": -0.894}
{"residue-codes": "RRIRTRPPRLPRPRPRPHNQPRP", "target-entity": "Escherichia coli TOP10", "reported-result": -0.369}
{"residue-codes": "RRIRCRPPRLPRPRPRPAGFPRP", "target-entity": "Escherichia coli TOP10", "reported-result": 0.1}

* * *

test system: Escherichia coli TOP10; test: shrunken log2 fold change of peptide-encoding DNA abundance (4.5 h post-induction vs induction); higher = less antimicrobial activity (less host growth inhibition); conditions: time post-induction: 4.5 h; library: site-saturation at positions 5, 18, 19, 20

{"residue-codes": "RRIRHRPPRLPRPRPRPLRFPRP", "target-entity": "Escherichia coli TOP10", "shrunken log2 fold change": -0.172}
{"residue-codes": "RRIRARPPRLPRPRPRPHCIPRP", "target-entity": "Escherichia coli TOP10", "shrunken log2 fold change": 0.102}
{"residue-codes": "RRIRWRPPRLPRPRPRPSWSPRP", "target-entity": "Escherichia coli TOP10", "shrunken log2 fold change": 0.862}

* * *

tested on: Escherichia coli TOP10; test: shrunken log2 fold change of peptide-encoding DNA abundance (4.5 h post-induction vs induction); higher = less antimicrobial activity (less host growth inhibition); settings: time post-induction: 4.5 h; library: site-saturation at positions 5, 18, 19, 20
reported-property: shrunken log2 fold change

{"residue-codes": "RRIRGRPPRLPRPRPRPCGEPRP", "reported-result": 0.931}
{"residue-codes": "RRIRYRPPRLPRPRPRPQIEPRP", "reported-result": 0.0413}
{"residue-codes": "RRIRQRPPRLPRPRPRPDHMPRP", "reported-result": 0.0119}
{"residue-codes": "RRIRGRPPRLPRPRPRPVGGPRP", "reported-result": 0.897}
{"residue-codes": "RRIRSRPPRLPRPRPRPMFSPRP", "reported-result": -0.49}
{"residue-codes": "RRIRPRPPRLPRPRPRPCHYPRP", "reported-result": -0.146}
{"residue-codes": "RRIRFRPPRLPRPRPRPEAFPRP", "reported-result": 1.82}
{"residue-codes": "RRIRERPPRLPRPRPRPIPRPRP", "reported-result": -0.138}
{"residue-codes": "RRIRQRPPRLPRPRPRPFWKPRP", "reported-result": -0.0968}
{"residue-codes": "RRIRLRPPRLPRPRPRPSCCPRP", "reported-result": -0.212}
{"residue-codes": "RRIRFRPPRLPRPRPRPPGYPRP", "reported-result": 0.0848}

* * *

test system: Escherichia coli TOP10; test: shrunken log2 fold change of peptide-encoding DNA abundance (4.5 h post-induction vs induction); higher = less antimicrobial activity (less host growth inhibition); conditions: time post-induction: 4.5 h; library: site-saturation at positions 5, 18, 19, 20;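 note: peptides expressed intracellularly from a pBAD plasmid library in pooled LB shake-flask culture, induced with 0.3% L-arabinose, DNA abundance read by NGS, three biological replicates, DESeq2 with apeglm shrinkage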
# binning rule on shrunken log2 fold change: band 1 (below -0.2), band 2 (-0.2 to below 0.05), band 3 (0.05 or more)

{"residue-codes": "RRIRDRPPRLPRPRPRPEWWPRP", "class-label": "band 2"}
{"residue-codes": "RRIRVRPPRLPRPRPRPRSIPRP", "class-label": "band 3"}
{"residue-codes": "RRIRKRPPRLPRPRPRPCMFPRP", "class-label": "band 2"}
{"residue-codes": "RRIRHRPPRLPRPRPRPGYNPRP", "class-label": "band 1"}
{"residue-codes": "RRIRTRPPRLPRPRPRPGKPPRP", "class-label": "band 3"}
{"residue-codes": "RRIRSRPPRLPRPRPRPLTGPRP", "class-label": "band 2"}
{"residue-codes": "RRIRVRPPRLPRPRPRPKRQPRP", "class-label": "band 2"}
{"residue-codes": "RRIRIRPPRLPRPRPRPTTPPRP", "class-label": "band 3"}
{"residue-codes": "RRIRFRPPRLPRPRPRPDWEPRP", "class-label": "band 2"}
{"residue-codes": "RRIRGRPPRLPRPRPRPNHCPRP", "class-label": "band 2"}
{"residue-codes": "RRIRFRPPRLPRPRPRPIVDPRP", "class-label": "band 2"}
{"residue-codes": "RRIRRRPPRLPRPRPRPFPPPRP", "class-label": "band 3"}
{"residue-codes": "RRIRDRPPRLPRPRPRPLKDPRP", "class-label": "band 1"}
{"residue-codes": "RRIRHRPPRLPRPRPRPIATPRP", "class-label": "band 2"}
{"residue-codes": "RRIRERPPRLPRPRPRPNWRPRP", "class-label": "band 3"}
{"residue-codes": "RRIRLRPPRLPRPRPRPLYLPRP", "class-label": "band 1"}
{"residue-codes": "RRIRYRPPRLPRPRPRPYTSPRP", "class-label": "band 1"}
